# Procedure text: yeast display, Sf9 membrane polyspecificity reagent, FACS + sequencing; frameworks hold sequencing errors
Measured parameter: polyreactivity (PSR sort gate)

# annotated cases, reported polyreactivity (PSR sort gate) shown
Ask | What value of measured polyreactivity (PSR sort gate) is listed for QVQLVESGGGLVQAGGSLRLSCAASGLTFKYYAMGWYRQAPGKERELVAAITSTGGRTYYADSVKGRFTISRDNAKNTVYLQMNSLKPEDTAVYYCAKDTHWAYYWGQGTQVTVSS ?
Reply | low polyreactivity

Ask | What value of measured polyreactivity (PSR sort gate) is listed for QVHLVESGGGLVQAGGSLRLSCSASGIIFYVYTMGWYRQARGKERELVAAISGSGGSTTYADSVKGRFTISRDNAKNTVYLQMNSLKPEDTAVYYCNAKKWFYRWCKFSEFDYWGQGTQVTVSS ?
Reply | high polyreactivity

Ask | What value of measured polyreactivity (PSR sort gate) is listed for QVQLVESGGGLVQEGGSLRLSCAPSGRTFAKYAMGWYRQSPGKERELVAAITRGDTTNYADSVKGRFTISRDNAKNTVYLQMNSLKPEDTAVYYCAATPDPPHTYEYWGQGTQVTVSS ?
Reply | low polyreactivity

Ask | What value of measured polyreactivity (PSR sort gate) is listed for QVQLVESGGGLVQAGGSLRLSCAASGSIFFYYAMGRYRQAPGKEMELVATINIGAGSTNYADSVKGRFTISRDNAKNTVYLQMNSLKPEDTAVYYCAADVNFYQDYIYLTDYDYWGQGTQVTVSS ?
Reply | low polyreactivity

Ask | What value of measured polyreactivity (PSR sort gate) is listed for QVQLVESGGGLVQAGGSLRLSCAASGRTFRQYAMGWYRQAPGKERELVAAIRTNGGRTYYADSVKGRFTISRDNAKNTVYLQMNSLKPEDTAVYYCAVYDVVQGVLFDYWGQGTQVTVSS ?
Reply | high polyreactivity

Ask | What value of measured polyreactivity (PSR sort gate) is listed for QVHLVESGGGLVKAGGSLRLSCGASGSTFERYAMGWYRQAPGKERELVAAINWSGGGTYYADSVKGRFTSSRDNAKNTVYLQMNSLNPEDTAVYYCAGDSGTVVFSLWWYEYYYWGQATQVTVSS ?
Reply | low polyreactivity

Further cases:
Ask | What value of measured polyreactivity (PSR sort gate) is listed for QVHLVQSGGGIVQEGGSLRISCAASGFTLIHYAMGWYRQAPGKERELVAGITTSGGSTYYADSVKGRFTISRDNAKNTVYLQMKSLKPEDTGVYYCADSSNTRGDYWGQGTQVTVSS ?
Reply | high polyreactivity

Ask | What value of measured polyreactivity (PSR sort gate) is listed for QVQLVESGGGLVQAGGSLRLSCAASGRIFRYYMGWYRQAPGKERELVAVISSGGRTKYADSVKGRFTISRDNAKNTVYLQMNSLKPEDTAVYYCAARYPREAAYGFDYWGQGTQVTVSS ?
Reply | high polyreactivity

Ask | What value of measured polyreactivity (PSR sort gate) is listed for QVQLVESGGGLVQAGCSLRLSCAASGTFGLYAMGWYRQAPGKERELVAAIRARGGSTYYADSVKGRFTISRDNAKNTVYLQMNSLKPEDTAVYYCAAEFWDVSLARKQWYDYWGQGTQVSVSS ?
Reply | high polyreactivity
